Test system: human PBMC cytotoxicity, percent of cell control
Assay: PBMC viability reduction by compounds – cell-based, PBMC assay companion, set 2, cytotoxicity control for HIV-1 antiviral lead project, dose response (AID 504571)
Readout Label: CC50

> print(dat)
                            molecule.smiles  readout.label  reported.result
1  Cc1c2c(=O)n(-c3nc4ccccc4s3)nc-2cc(O)n1Cc1ccccc1           CC50            21 µM
2  Cc1c2c(=O)n(-c3nc4ccccc4s3)nc-2cc(O)n1CCC(C)C           CC50            45 µM
3  Cc1c2c(=O)n(-c3nc4ccccc4s3)nc-2cc(O)n1Cc1ccccc1Cl           CC50          35.6 µM
4  Cc1c2c(=O)n(-c3nc4ccccc4s3)nc-2cc(O)n1CCc1cccs1           CC50          40.8 µM
5  Cc1c2c(=O)n(-c3nc4ccccc4s3)nc-2cc(O)n1C1CC1           CC50          5.72 µM
6  Cc1c2c(=O)n(-c3nc4ccccc4s3)nc-2cc(O)n1Cc1cccnc1           CC50          2.24 µM

The following compounds each have a reported value; give each one's CC50.
1. COc1ccc(CCn2c(O)cc3nn(-c4nc5ccccc5s4)c(=O)c-3c2C)cc1
2. Cc1c2c(=O)n(-c3nc4ccccc4s3)nc-2cc(O)n1Cc1ccc(F)cc1
3. Cc1c2c(=O)n(-c3nc4ccccc4s3)nc-2cc(O)n1Cc1cccs1

["49.8 µM", "19.1 µM", "14.2 µM"]

The following compounds each have a reported value; give each one's CC50.
1. COc1ccccc1Cn1c(O)cc2nn(-c3nc4ccccc4s3)c(=O)c-2c1C
2. Cc1c2c(=O)n(-c3nc4ccccc4s3)nc-2cc(O)n1CCc1ccc(O)cc1
3. Cc1c2c(=O)n(-c3nc4ccccc4s3)nc-2cc(O)n1Cc1ccncc1
4. COc1ccc(Cn2c(O)cc3nn(-c4nc5ccccc5s4)c(=O)c-3c2C)cc1

29.6 µM
2.55 µM
2.64 µM
19.1 µM
